Cited source: paper PMC10786891

Catalogue of binders with associated log10 of Kd
Target: T1, EsCas13d, nuclease-dead (Eubacterium siraeum, UniProt B0MS50, R295A;H300A;R849A;H854A)
T1 sequence: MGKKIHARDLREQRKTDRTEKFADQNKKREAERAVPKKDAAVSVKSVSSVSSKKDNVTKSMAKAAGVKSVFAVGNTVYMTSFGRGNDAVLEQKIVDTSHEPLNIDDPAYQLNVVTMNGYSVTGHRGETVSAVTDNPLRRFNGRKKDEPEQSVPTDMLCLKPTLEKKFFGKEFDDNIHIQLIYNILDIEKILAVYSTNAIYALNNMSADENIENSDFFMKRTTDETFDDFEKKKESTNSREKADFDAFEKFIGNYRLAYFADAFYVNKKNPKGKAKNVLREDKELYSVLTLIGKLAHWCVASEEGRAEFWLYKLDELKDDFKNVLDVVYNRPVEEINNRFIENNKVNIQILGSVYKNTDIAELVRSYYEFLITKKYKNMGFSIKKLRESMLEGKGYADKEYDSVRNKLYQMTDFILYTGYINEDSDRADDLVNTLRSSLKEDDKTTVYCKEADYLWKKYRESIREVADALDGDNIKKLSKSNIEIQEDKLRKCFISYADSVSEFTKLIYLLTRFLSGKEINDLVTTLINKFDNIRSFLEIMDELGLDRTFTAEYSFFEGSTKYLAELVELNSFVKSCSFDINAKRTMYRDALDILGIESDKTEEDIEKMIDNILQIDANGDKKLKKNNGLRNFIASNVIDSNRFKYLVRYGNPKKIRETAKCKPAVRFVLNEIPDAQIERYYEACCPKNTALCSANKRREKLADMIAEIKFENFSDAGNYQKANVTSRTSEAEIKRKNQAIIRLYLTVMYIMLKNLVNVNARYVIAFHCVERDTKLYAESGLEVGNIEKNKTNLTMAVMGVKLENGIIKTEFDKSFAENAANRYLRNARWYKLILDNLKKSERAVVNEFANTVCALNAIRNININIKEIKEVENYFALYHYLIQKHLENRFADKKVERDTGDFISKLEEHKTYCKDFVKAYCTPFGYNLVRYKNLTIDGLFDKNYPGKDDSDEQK
Assay: crRNA (strand 1, pre-loaded); Mg2+; 40 mM Tris-HCl pH 7.5, 150 mM NaCl, 6 mM MgCl2, 1 mM DTT, 0.1% Tween-20, 0.2 mg/ml BSA; 25 C; 10 min per concentration, then washed
Details: tags: His6-TwinStrep-SUMO cleaved; N-terminal SNAP kept (SNAP-Surface 488); label: 3' end held by stalled T7 RNA polymerase
observed_property: log10 of Kd (log10 of the value in nM)

{"columns": ["binder", "observed_property", "result_value"],
 "data": [
  ["target 1 insU 3' of 9,insU 3' of 4 (mixed) RNA 1: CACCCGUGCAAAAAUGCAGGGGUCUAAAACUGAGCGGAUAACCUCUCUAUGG RNA 2: GGGAAUGGAUCCACAUCUACGAAUUCGUACCAUAGAGAGGUUAUUCCGCUUCACCGAGAUCGGAAGAGCACACGU", "log10 of Kd", 1.16],
  ["target 1 MT 5'PFS GGA 3'PFS AUU (mixed) RNA 1: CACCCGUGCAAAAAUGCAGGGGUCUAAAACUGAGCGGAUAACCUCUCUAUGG RNA 2: GGGAAUGGAUCCACAUCUACGAAUUCGGACCAUAGAGAGGUUAUCCGCUCAAUUAGAUCGGAAGAGCACACGU", "log10 of Kd", 1.25],
  ["target 1 G5C,G13U (mixed) RNA 1: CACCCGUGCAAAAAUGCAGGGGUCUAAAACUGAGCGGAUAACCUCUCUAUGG RNA 2: GGGAAUGGAUCCACAUCUACGAAUUCGUACCAUAGAGAUGUUAUCCCCUCACCGAGAUCGGAAGAGCACACGU", "log10 of Kd", 1.60],
  ["target 1 insG 3' of 16,insG 3' of 16 (mixed) RNA 1: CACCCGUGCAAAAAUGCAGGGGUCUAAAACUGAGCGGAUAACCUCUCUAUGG RNA 2: GGGAAUGGAUCCACAUCUACGAAUUCGUACCAUAGAGGGAGGUUAUCCGCUCACCGAGAUCGGAAGAGCACACGU", "log10 of Kd", 1.35],
  ["target 1 del8,del22 (mixed) RNA 1: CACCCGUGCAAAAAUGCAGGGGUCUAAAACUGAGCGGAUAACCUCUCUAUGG RNA 2: GGGAAUGGAUCCACAUCUACGAAUUCGUACAUAGAGAGGUUACCGCUCACCGAGAUCGGAAGAGCACACGU", "log10 of Kd", 1.52],
  ["target 1 MT 5'PFS UCC 3'PFS ACU (mixed) RNA 1: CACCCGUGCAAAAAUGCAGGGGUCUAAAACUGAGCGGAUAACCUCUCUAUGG RNA 2: GGGAAUGGAUCCACAUCUACGAAUUCUCCCCAUAGAGAGGUUAUCCGCUCAACUAGAUCGGAAGAGCACACGU", "log10 of Kd", 1.15],
  ["target 1 insC 3' of 13,insA 3' of 13 (mixed) RNA 1: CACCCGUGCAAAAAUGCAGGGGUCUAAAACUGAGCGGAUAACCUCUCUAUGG RNA 2: GGGAAUGGAUCCACAUCUACGAAUUCGUACCAUAGAGAGCAGUUAUCCGCUCACCGAGAUCGGAAGAGCACACGU", "log10 of Kd", 1.24],
  ["target 1 insC 3' of 17,insU 3' of 6 (mixed) RNA 1: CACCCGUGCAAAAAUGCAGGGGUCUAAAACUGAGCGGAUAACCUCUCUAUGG RNA 2: GGGAAUGGAUCCACAUCUACGAAUUCGUACCAUAGCAGAGGUUAUCCUGCUCACCGAGAUCGGAAGAGCACACGU", "log10 of Kd", 1.81],
  ["target 1 C7G (mixed) RNA 1: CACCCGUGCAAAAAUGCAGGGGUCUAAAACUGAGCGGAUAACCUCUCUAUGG RNA 2: GGGAAUGGAUCCACAUCUACGAAUUCGUACCAUAGAGAGGUUAUGCGCUCACCGAGAUCGGAAGAGCACACGU", "log10 of Kd", 0.94],
  ["target 1 MT 5'PFS GUU 3'PFS CAU (mixed) RNA 1: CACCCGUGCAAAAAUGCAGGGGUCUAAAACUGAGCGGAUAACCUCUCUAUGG RNA 2: GGGAAUGGAUCCACAUCUACGAAUUCGUUCCAUAGAGAGGUUAUCCGCUCACAUAGAUCGGAAGAGCACACGU", "log10 of Kd", 1.35],
  ["target 1 MT 5'PFS GGG 3'PFS AGU (mixed) RNA 1: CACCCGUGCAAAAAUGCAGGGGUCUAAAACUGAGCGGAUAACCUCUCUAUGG RNA 2: GGGAAUGGAUCCACAUCUACGAAUUCGGGCCAUAGAGAGGUUAUCCGCUCAAGUAGAUCGGAAGAGCACACGU", "log10 of Kd", 1.48],
  ["target 1 MT 5'PFS GUC 3'PFS AGG (mixed) RNA 1: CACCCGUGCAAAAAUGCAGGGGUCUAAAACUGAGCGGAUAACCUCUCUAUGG RNA 2: GGGAAUGGAUCCACAUCUACGAAUUCGUCCCAUAGAGAGGUUAUCCGCUCAAGGAGAUCGGAAGAGCACACGU", "log10 of Kd", 1.66],
  ["target 1 insG 3' of 22,insG 3' of 21 (mixed) RNA 1: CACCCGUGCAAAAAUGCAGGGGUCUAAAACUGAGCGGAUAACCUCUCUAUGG RNA 2: GGGAAUGGAUCCACAUCUACGAAUUCGUACGCGAUAGAGAGGUUAUCCGCUCACCGAGAUCGGAAGAGCACACGU", "log10 of Kd", 1.83],
  ["target 3 insU 3' of 16,insA 3' of 4 (mixed) RNA 1: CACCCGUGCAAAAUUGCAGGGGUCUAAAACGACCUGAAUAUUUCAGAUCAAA RNA 2: GGGAAUGGAUCCACAUCUACGAAUUCGUUUUUGAUCUUGAAAUAUUCAGAGUCUGCAGAUCGGAAGAGCACACGU", "log10 of Kd", 1.95],
  ["target 1 MT 5'PFS UGC 3'PFS UAA (mixed) RNA 1: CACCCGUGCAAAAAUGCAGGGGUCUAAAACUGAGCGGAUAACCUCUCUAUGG RNA 2: GGGAAUGGAUCCACAUCUACGAAUUCUGCCCAUAGAGAGGUUAUCCGCUCAUAAAGAUCGGAAGAGCACACGU", "log10 of Kd", 1.20]
]}
